The entries below come with measured minimal inhibitory concentration (M.I.C.) values attached.
# Tested on: S. aureus 1840
# PROTOCOL DESCRIPTION: Minimal inhibitory concentration (M.I.C.), agar dilution method
# Assay type: cell-based, Staphylococcus aureus
# EXPERIMENTAL SETUP: TSA, inoculum 10^7 /ml
Keep it simple and answer with nothing but the number.

> print(dat)
                                   compound  experimental.target  value
1  CC(=O)OCC1=C(C(=O)O)N2C(=O)C(NC(=O)/C(=N\OC(=O)NC(C)C)c3csc(=N)[nH]3)C2SC1 (stereo not shown)       S. aureus 1840   3.13
2  CCCNC(=O)O/N=C(\C(=O)NC1C(=O)N2C(C(=O)O)=C(COC(C)=O)CSC12)c1csc(=N)[nH]1 (stereo not shown)       S. aureus 1840   1.56

QUERY: Hello, I am looking for reported minimal inhibitory concentration (M.I.C.) with S. aureus 1840 for CCNC(=O)O/N=C(\C(=O)NC1C(=O)N2C(C(=O)O)=C(COC(N)=O)CSC12)c1csc(=N)[nH]1 (stereo not shown) . Could you help?
RESULT: 3.13

* * *

# System: C. freundii GN 1706
# PROTOCOL DESCRIPTION: Minimal inhibitory concentration (M.I.C.), agar dilution method
# Type: cell-based, Citrobacter freundii
# EXPERIMENTAL SETUP: TSA, inoculum 10^7 /ml
Collected minimal inhibitory concentration (M.I.C.) values appear next to each entry.

// solved cases for minimal inhibitory concentration (M.I.C.) follow
> print(dat)
                                   molecule  value
1  CCCCNC(=O)O/N=C(\C(=O)NC1C(=O)N2C(C(=O)O)=C(C)CSC12)c1csc(=N)[nH]1 (stereo not shown)     25
2  CCCCNC(=O)O/N=C(\C(=O)NC1C(=O)N2C(C(=O)O)=C(CSc3nnnn3C)CSC12)c1csc(=N)[nH]1 (stereo not shown)   0.78
3  CCCNC(=O)O/N=C(\C(=O)NC1C(=O)N2C(C(=O)O)=C(COC(C)=O)CSC12)c1csc(=N)[nH]1 (stereo not shown)   0.78

QUERY: Which minimal inhibitory concentration (M.I.C.) value is on record for CC(=O)OCC1=C(C(=O)O)N2C(=O)C(NC(=O)/C(=N\OC(=O)NC(C)C)c3csc(=N)[nH]3)C2SC1 (stereo not shown) ?
RESULT: 0.78

* * *

# System: S. aureus 209P
# PROTOCOL DESCRIPTION: Minimal inhibitory concentration (M.I.C.), agar dilution method
# Format: cell-based, Staphylococcus aureus
# EXPERIMENTAL SETUP: TSA, inoculum 10^7 /ml
OBSERVED PROPERTY: minimal inhibitory concentration (M.I.C.)
Kindly provide the number alone.

Solved entries:
> print(dat)
                                   compound  value
1  CCNC(=O)O/N=C(\C(=O)NC1C(=O)N2C(C(=O)O)=C(C)CSC12)c1csc(=N)[nH]1 (stereo not shown)     25
2  CNC(=O)O/N=C(\C(=O)NC1C(=O)N2C(C(=O)O)=C(CSc3nnc(CC(N)=O)s3)CSC12)c1csc(=N)[nH]1 (stereo not shown)   1.56
3  CNC(=O)O/N=C(\C(=O)NC1C(=O)N2C(C(=O)O)=C(CSc3nnc(C)s3)CSC12)c1csc(=N)[nH]1 (stereo not shown)   3.13
4  CCNC(=O)O/N=C(\C(=O)NC1C(=O)N2C(C(=O)O)=C(COC(C)=O)CSC12)c1csc(=N)[nH]1 (stereo not shown)   1.56
5  CNC(=O)O/N=C(\C(=O)NC1C(=O)N2C(C(=O)O)=C(CSc3nnnn3CCN(C)C)CSC12)c1csc(=N)[nH]1 (stereo not shown)   1.56
6  CNC(=O)O/N=C(\C(=O)NC1C(=O)N2C(C(=O)[O-])=C(C[n+]3ccc(C(N)=O)cc3)CSC12)c1csc(=N)[nH]1 (stereo not shown)   3.13
7  CCCCNC(=O)O/N=C(\C(=O)NC1C(=O)N2C(C(=O)O)=C(CSc3nnnn3C)CSC12)c1csc(=N)[nH]1 (stereo not shown)   0.78
8  CC(=O)OCC1=C(C(=O)[O-])N2C(=O)C(NC(=O)Cc3cccs3)[C@H]2SC1.[Na+] (stereo partly shown) [Cephalothin, reference compound]   0.20

Turning now to a further record.
QUERY: Look up minimal inhibitory concentration (M.I.C.): CC(C)NC(=O)O/N=C(\C(=O)NC1C(=O)N2C(C(=O)O)=C(COC(N)=O)CSC12)c1csc(=N)[nH]1 (stereo not shown)
RESULT: 1.56
